Reported Foxtail, Green plant response rating (0-100) values for the following molecules.
- Test system: green foxtail (Setaria viridis)
- assay_text: Test A postemergence application, visual injury rating 0-100
- Assay type: in vivo
- details: 31 g ai/ha, postemergence, 10 days, 0 = no effect, 100 = complete control
Please reply with the value in numeric form only.

Recorded results for 3 molecules are shown here.
{"molecule": "CCOC(=O)C1CC(NC(=O)C2(C)CN(c3cc(F)cc(F)c3)C(=O)O2)CO1 (stereo not shown) [Compound 31]", "reported_measurement": 0}
{"molecule": "COC(=O)C1CCC(NC(=O)C2(C)CN(c3cc(F)cc(F)c3)C(=O)O2)C1 (stereo not shown) [Compounds 10]", "reported_measurement": 20}
{"molecule": "CC1(C(=O)NC2C=CC(C(=O)OCC(F)(F)F)C2)CN(c2cc(F)cc(F)c2)C(=O)O1 (stereo not shown) [Compound 55]", "reported_measurement": 20}

Okay, next one:
Tell me Foxtail, Green plant response rating (0-100) reported for COC(=O)C1=CC[C@H](NC(=O)C2(C)CN(c3cc(F)cc(F)c3)C(=O)O2)C1 (mixture of isomers) [Compound 37]
90

----------
Reported Ryegrass, Italian plant response rating (0 to 100 scale) values for the following molecules.
- System: ryegrass, Italian (italian ryegrass, Lolium multiflorum)
- assay_text: Test A postemergence application, visual injury rating 0-100
- Format: in vivo
- details: Postemergence, 125 g ai/ha, 10 days; 0 is no effect, 100 is complete control
Please reply with the value in numeric form only.

Recorded results for 5 molecules are shown here.
{"molecule": "CCS(=O)(=O)NC(=O)C1C=CC(NC(=O)C2(C)CN(c3cc(F)cc(F)c3)C(=O)O2)C1 (stereo not drawn) [Compound 81]", "reported_measurement": 70}
{"molecule": "COC(=O)C1=CCC(NC(=O)C2(C)CN(c3cc(F)cc(F)c3)C(=O)O2)C1 (stereo not drawn) [Compound 21]", "reported_measurement": 40}
{"molecule": "CC(C)COC(=O)C1=CCC(NC(=O)C2(C)CN(c3cc(F)cc(F)c3)C(=O)O2)C1 (stereo not drawn) [Compound 16]", "reported_measurement": 90}
{"molecule": "CC1(C(=O)NC2C=CC(C(=O)NS(=O)(=O)c3ccccc3)C2)CN(c2cc(Cl)cc(Cl)c2)C(=O)O1 (stereo not drawn) [Compound 86]", "reported_measurement": 70}
{"molecule": "COC(=O)C1=CCC(NC(=O)C2(C)CN(c3cc(F)cc(F)c3)C(=O)O2)C1 (single isomer, unassigned) [Compound 20]", "reported_measurement": 80}

Tell me Ryegrass, Italian plant response rating (0 to 100 scale) reported for CC1(C(=O)NC2CC=C(C(=O)NS(=O)(=O)C3CC3)C2)CN(c2cc(Cl)cc(Cl)c2)C(=O)O1 (stereo not drawn) [Compound 75]
70

Tell me Ryegrass, Italian plant response rating (0 to 100 scale) reported for COC(=O)C1CC(NC(=O)C2(C)CN(c3cc(F)cc(F)c3)C(=O)O2)CO1 (stereo not drawn) [Compound 29]
90

Tell me Ryegrass, Italian plant response rating (0 to 100 scale) reported for CC1(C(=O)NC2C=CC(C(=O)OC3CCCC3)C2)CN(c2cc(Cl)cc(Cl)c2)C(=O)O1 (stereo not drawn) [Compound 59]
90

Tell me Ryegrass, Italian plant response rating (0 to 100 scale) reported for CC1(C(=O)NC2CCC(C(=O)O)C2)CN(c2cc(F)cc(Cl)c2)C(=O)O1 (stereo not drawn) [Compound 7]
90
